SYSTEM TESTED: human NaPi-2a (Homo sapiens)
Sequence (Q06495 whole entry): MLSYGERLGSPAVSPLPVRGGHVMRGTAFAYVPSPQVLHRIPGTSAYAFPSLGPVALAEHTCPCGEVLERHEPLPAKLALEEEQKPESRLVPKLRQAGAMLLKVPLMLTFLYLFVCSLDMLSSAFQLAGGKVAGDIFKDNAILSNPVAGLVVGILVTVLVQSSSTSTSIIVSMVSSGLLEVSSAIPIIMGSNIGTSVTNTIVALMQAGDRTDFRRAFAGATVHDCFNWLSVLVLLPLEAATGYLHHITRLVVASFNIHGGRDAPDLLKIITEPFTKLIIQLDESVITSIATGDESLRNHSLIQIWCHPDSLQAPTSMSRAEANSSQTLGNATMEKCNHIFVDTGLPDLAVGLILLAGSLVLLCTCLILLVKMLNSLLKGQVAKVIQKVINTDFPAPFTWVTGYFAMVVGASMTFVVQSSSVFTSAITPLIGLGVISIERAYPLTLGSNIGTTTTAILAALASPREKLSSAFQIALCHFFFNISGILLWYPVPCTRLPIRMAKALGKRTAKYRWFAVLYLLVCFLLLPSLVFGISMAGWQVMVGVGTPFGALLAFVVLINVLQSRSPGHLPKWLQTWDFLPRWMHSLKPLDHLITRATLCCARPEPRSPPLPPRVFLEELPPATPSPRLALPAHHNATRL
PROTOCOL TEXT: Sodium-dependent phosphate uptake of Xenopus oocytes which expressed NaPi-2a (32P)
CONDITION SET: phosphate uptake, Xenopus oocytes expressing human NaPi-2a; five concentration levels
Response field class: enum, chosen by comparing IC50 against category 1: < 7 µM; category 2: ≥ 7 µM and < 10 µM; category 3: ≥ 10 µM

Qu. Hello team, could you let me know which band the following compound falls into: COc1ccc(/C=N/NC(=O)c2c(NC(=O)c3cccc(CN(CC(C)O)CC(C)O)c3)sc3c2CCCC3)cc1 (stereo not shown)
Ans. category 3

Qu. Hi there! Could you help me figure out the category for O=C(Nc1ccc(N2CCCCC2)cc1C(=O)N/N=C/c1ccc(F)cc1)c1cccc(CSCC(O)CO)c1 (stereo not shown) please?
Ans. category 1

Qu. Where would O=C(Nc1ccc(N2CCCCC2)cc1C(=O)N/N=C/c1ccc(F)cc1)c1cccc(CN2CCc3nc4ncccc4cc3C2)c1 land among the classes by reported IC50?
Ans. category 1

Qu. Which of the defined bands does the recorded IC50 of O=C(Nc1sc2c(c1C(=O)N/N=C/c1cccc(F)c1)CCCC2)c1cccc(CN2CCC(CO)CC2)c1 sit within?
Ans. category 3

Qu. // return the class label for COc1ccc(/C=N/NC(=O)c2c(C)csc2NC(=O)c2cccc(CN(CCO)CCO)c2)cc1
Ans. category 1

Qu. For CCN(CC)CCSCc1cccc(C(=O)Nc2ccc(N3CCCCC3)cc2C(=O)N/N=C/c2ccc(Cl)c(C(F)(F)F)c2)c1 , which IC50 bin applies?
Ans. category 2

Qu. Using the reported IC50, which band applies to Cc1ccc(/C=N/NC(=O)c2c(C)csc2NC(=O)c2cccc(CN3CCC4(CC3)OCCO4)c2)cc1 ?
Ans. category 3

Qu. Entry Cc1csc(NC(=O)c2cccc(CN3CCN(c4ncccn4)CC3)c2)c1C(=O)N/N=C/c1ccc(Cl)c(C(F)(F)F)c1 belongs to which category?
Ans. category 3

Qu. Sort CC(O)CN(Cc1cccc(C(=O)Nc2sc3c(c2C(=O)N/N=C/c2cccc(F)c2)CCCC3)c1)CC(C)O (stereo not shown) into one of the categories.
Ans. category 1

Qu. Hello team, could you let me know which band the following compound falls into: COc1ccc(C(=O)Nc2ccc(N3CCCCC3)cc2C(=O)N/N=C/c2cccnc2)cc1OC
Ans. category 3

Qu. Tag the class for CC(O)CN(Cc1cccc(C(=O)Nc2sc3c(c2C(=O)N/N=C/c2ccc(F)cc2)CCC3)c1)CC(C)O (stereo not shown)
Ans. category 2

Qu. Which of the defined bands does the recorded IC50 of COc1ccc(C(=O)Nc2ccc(N3CCCCC3)cc2C(=O)N/N=C/c2ccc(C)c(C)c2)cc1OC sit within?
Ans. category 2

* * *

SYSTEM TESTED: rat NaPi-2b (Rattus norvegicus)
Sequence (Q9JJ09 whole entry): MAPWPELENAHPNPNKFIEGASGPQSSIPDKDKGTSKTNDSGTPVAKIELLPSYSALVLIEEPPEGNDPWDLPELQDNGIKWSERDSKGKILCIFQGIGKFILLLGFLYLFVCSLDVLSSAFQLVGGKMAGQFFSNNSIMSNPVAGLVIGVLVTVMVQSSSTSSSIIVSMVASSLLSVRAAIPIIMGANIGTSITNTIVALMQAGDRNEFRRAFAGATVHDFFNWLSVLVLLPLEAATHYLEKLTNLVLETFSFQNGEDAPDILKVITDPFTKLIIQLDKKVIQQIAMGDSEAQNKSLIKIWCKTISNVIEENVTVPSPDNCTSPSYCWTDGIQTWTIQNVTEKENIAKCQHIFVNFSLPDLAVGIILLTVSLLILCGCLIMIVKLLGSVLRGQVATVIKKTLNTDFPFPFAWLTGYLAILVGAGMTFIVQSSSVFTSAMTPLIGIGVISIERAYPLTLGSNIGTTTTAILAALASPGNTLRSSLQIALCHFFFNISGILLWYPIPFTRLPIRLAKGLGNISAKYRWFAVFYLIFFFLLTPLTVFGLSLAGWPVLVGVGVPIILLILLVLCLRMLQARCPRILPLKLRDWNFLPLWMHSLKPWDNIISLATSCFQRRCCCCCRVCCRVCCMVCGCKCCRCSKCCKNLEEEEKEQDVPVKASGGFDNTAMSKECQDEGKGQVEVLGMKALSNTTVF
PROTOCOL TEXT: Sodium-dependent phosphate uptake of Xenopus oocytes which expressed NaPi-2b (32P)
CONDITION SET: Xenopus oocytes expressing rat NaPi-2b, 32P radioactive phosphorus; read-out: IC50 (phosphate uptake inhibitory activity)
Counter-ions that a name gives are not always drawn.
PROPERTY MEASURED: log10 of IC50 (log10 of the value in µM)
In plain terms, each number is the log10 of measured IC50 in µM.

Qu. Param item = COc1ccc(/C=N/NC(=O)c2c(NC(=O)c3cccc(CN(CC(C)O)CC(C)O)c3)sc(C)c2C)cc1 (centres unmarked) ; retrieve measured log10 of IC50.
Ans. 0.34

Qu. Which value of log10 of IC50 has been reported for Cc1csc(NC(=O)c2cccc(CN3CCC4(CC3)OCCO4)c2)c1C(=O)N/N=C/c1ccc(F)cc1 in the records?
Ans. 1.28

Qu. So what's the measured log10 of IC50 for this one? Cc1ccc(/C=N/NC(=O)c2cscc2NC(=O)c2cccc(CN3CCN(CCO)CC3)c2)cc1
Ans. 1.09

Qu. Would you mind telling me what log10 of IC50 value was observed for O=C(Nc1ccc(Cl)cc1C(=O)N/N=C/C=C/c1ccccc1)c1ccncc1 ?
Ans. 0.94

Qu. Given the entry CN(CCO)Cc1cccc(C(=O)Nc2ccc(Cl)cc2C(=O)N/N=C/c2ccc(F)cc2)c1 , report its measured log10 of IC50.
Ans. 0.93

Qu. Value lookup for log10 of IC50; key = CCN(CC)CCN(C)Cc1cccc(C(=O)Nc2ccc(I)cc2C(=O)N/N=C/c2ccc(O)cc2)c1
Ans. 1.08

Qu. So what's the measured log10 of IC50 for this one? Cc1ccc(/C=N/NC(=O)c2c(NC(=O)c3cccc(CN4CCC(CO)CC4)c3)sc3c2CCC3)cc1
Ans. 1.56

Qu. Recorded log10 of IC50 of O=C(Nc1ccc(Br)cc1C(=O)N/N=C/c1ccc(Cl)c(C(F)(F)F)c1)c1ccc(CN2CCN(CCO)CC2)cc1 , please.
Ans. 0.42

Qu. Which log10 of IC50 reading was recorded for the molecule CC(O)CN(Cc1cccc(C(=O)Nc2ccc(F)cc2C(=O)N/N=C/c2ccc(Cl)c(C(F)(F)F)c2)c1)CC(C)O (centres unmarked) [Compound 853, hydrochloride] ?
Ans. 0.33

Qu. Recorded log10 of IC50 for COc1ccc(C(=O)Nc2ccc(Br)cc2C(=O)N/N=C/c2cc(C)c(C)o2)cc1OC , please?
Ans. 0.50

Qu. What does the data say about its log10 of IC50? Entry: COc1ccc(C(=O)Nc2ccc(Cl)cc2C(=O)N/N=C/c2cccnc2)cc1OC
Ans. 0.96

Qu. Look up log10 of IC50: O=C(Nc1ccc(Br)cc1C(=O)N/N=C/c1cccc(O)c1)c1ccc(F)cc1
Ans. 0.79
